Values from paper PMC10532587

Test system: MKL-1
Experiment: Cell survival by CellTiterGlo, VP-MCC line MKL-1
Format: cell-based
Conditions: area under the dose-response curve; VP-MCC

MOLECULE	AUC (arbitrary units) MKL-1
O=C1C2=C3C4=[N+](CCc5c[nH]c1c54)[C@@H]1C(=O)C=C4S[C@@H](C[C@@]43[C@H]1O)N2 [Compound 12, (−)-(1R,2S,6R,8S) discorhabdin L]	13.23
O=C1C=C(SSC2=CC(=O)C(Br)=C[C@]23C=CNC2=C3C3=NCCc4c[nH]c(c43)C2=O)[C@@]2(C=CNC3=C2C2=NCCc4c[nH]c(c42)C3=O)C=C1Br [Compound 10, (−)-(6S,6′S) discorhabdin W]	18.4
Cn1cc2c3c1C(=O)C1=C(C3=NCC2)C2(C=C(Br)C(=O)C(Br)=C2)CCN1 [Compound 17, discorhabdin P]	7.146
O=C1C=C2S[C@H]3C[C@]2(C=C1Br)C1=C(N3)C(=O)c2[nH]cc3ccnc1c23 [Compound 3, (+)-(6S,8S) discorhabdin Q]	389.4
O=C(O)CNC1C2C(=O)C=C3SC4CC31C1=C(N4)C(=O)c3[nH]cc4c3C1=[N+]2CC4 (single isomer, unassigned; (-)) [Compound 13]	83.43

###

Tested on: MCC26
Assay: Cell survival by CellTiterGlo, VN-MCC line MCC26
Type: cell-based
Details: area under the dose-response curve
AUC (arbitrary units) MCC26 for assorted molecules
MEASURED PARAMETER: AUC (arbitrary units) MCC26

MOLECULE	SYSTEM UNDER TEST	UNIT ABBREV	RESULT NUMBER
O=C1C=C2SC3CC2(C=C1Br)C1=C(N3)C(=O)c2[nH]cc3c2C1=NCC3 (single isomer, unassigned; (-)) [(-)B]	MCC26	arbitrary units	80.18
O=C1C=C[C@]2(C=C1Br)CCNC1=C2C2=NCCc3c[nH]c(c32)C1=O [Compound 22, (+)-(6S)-discorhabdin E]	MCC26	arbitrary units	226.2
O=C1C=CC2(C=C1)CCNC1=C2C2=NCCc3c[nH]c(c32)C1=O	MCC26	arbitrary units	866.1
O=C1C=C(SSC2=CC(=O)C(Br)=C[C@]23C=CNC2=C3C3=NCCc4c[nH]c(c43)C2=O)[C@@]2(C=CNC3=C2C2=NCCc4c[nH]c(c42)C3=O)C=C1Br [Compound 10, (−)-(6S,6′S) discorhabdin W]	MCC26	arbitrary units	290.1
O=C1C2=C3C4=[N+](CCc5c[nH]c1c54)[C@@H]1C(=O)C=C4S[C@@H](C[C@@]43[C@H]1O)N2 [Compound 12, (−)-(1R,2S,6R,8S) discorhabdin L]	MCC26	arbitrary units	140.6
Cn1cnc(S[C@H]2[C@H]3C(=O)C=C4S[C@H]5C[C@]42C2=C(N5)C(=O)c4[nH]cc5c4C2=[N+]3CC5)c1C[C@H](N)C(=O)O (relative stereo) [Compound 14, (−)-(1R,2R,6R,8S,7′S*) discorhabdin H]	MCC26	arbitrary units	947
O=C1C=C2S[C@H]3C[C@]2(C=C1Br)C1=C(N3)C(=O)c2[nH]cc3c2C1=NCC3 [Compound 2, (+)-(6S,8S) discorhabdin B]	MCC26	arbitrary units	83.94
O=C1C2=C3C4=[N+](CCc5c[nH]c1c54)[C@H]1C[C@@]34C[C@@H](N2)SC4=CC1=O [Compound 11, (+)-(2S,6R,8S) discorhabdin D]	MCC26	arbitrary units	653.2
CSC1=CC(=O)C=C2S[C@H]3C[C@@]12C1=C(N3)C(=O)c2[nH]cc3c2C1=NCC3 [Compound 7, (+)-(6R,8S) thiomethyldiscorhabdin G*/I]	MCC26	arbitrary units	638.2
Cn1cc2c3c1C(=O)C1=C(C3=NCC2)[C@]2(C=CC(=O)C(Br)=C2)CCN1 [Compound 23, (+)-(6S)-N-13-methyldiscorhabdin E]	MCC26	arbitrary units	306.3
O=C1CC2SC3CC2(C=C1Br)C1=C(N3)C(=O)c2[nH]cc3c2C1=NCC3 (single isomer, unassigned; (+))	MCC26	arbitrary units	88.19
